target: γ-secretase complex (Homo sapiens); test: APP-C99 counter assay (GSI reporter assay); format: cell-based; parameters: scale not given here; conditions: area under the 14-point dose-response curve; replicates averaged
Each record is given T if its reported AUC APP is strictly below 500. Records at or above 500 are given F.

Solved entries:
compound=COc1cc(Nc2nc(-c3ccc(F)c(Cl)c3)cn3ccnc23)cc(OC)c1OC label=T
compound=NC(=O)c1c(NC(=O)NC2CCCCC2)sc2c1CCCC2 label=T
compound="C[C@H](NC(=O)[C@@H](O)c1cc(F)cc(F)c1)C(=O)N[C@@H]1C(=O)N(C)c2ccccc2-c2ccccc21 [LY-411575, reference compound]" label=T

q: Consider `c1ccc(-c2ccccc2CN2CCC3(CC2)OCCc2c3[nH]c3ccccc23)cc1` . Does its AUC APP lie strictly below 500?
a: F

q: Consider `Cc1ccccc1CN1CCC2(CC1)OCCc1c2n(C)c2ccccc12` . Does its AUC APP lie strictly below 500?
a: F
